Every entry's value here was drawn from patent US7910622B2.

Reported values of Activation (%) for individual entries
Molecular target: TraR (Agrobacterium tumefaciens, UniProt P33905); note: test concentration or dose not given here
Construct: These strains lack their AHL synthase (I) genes, but retain their native R genes; endogenous in cells; host or cells: A. tumefaciens WCF47 (Δ-traI) with PtraI-lacZ plasmid pCF372
Sequence (P33905 whole entry): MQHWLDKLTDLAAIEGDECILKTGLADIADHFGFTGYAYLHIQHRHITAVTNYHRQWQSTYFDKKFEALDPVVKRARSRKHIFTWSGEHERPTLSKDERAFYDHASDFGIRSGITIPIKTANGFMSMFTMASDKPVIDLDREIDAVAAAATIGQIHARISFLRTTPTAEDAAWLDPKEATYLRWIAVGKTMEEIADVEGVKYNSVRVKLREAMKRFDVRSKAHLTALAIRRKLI
Experiment: cell-based
Conditions: A. tumefaciens-TraR; Library C primary agonism screen
Respond numerically; units are % and should not be typed.

// solved cases for Activation (%) follow
[
  {
    "input_smiles": "COc1ccc(CC(=O)N[C@H]2CCOC2=O)cc1",
    "result_units": "%",
    "Activation (%)": 0
  },
  {
    "input_smiles": "CCOc1ccc(CC(=O)N[C@H]2CCOC2=O)cc1",
    "result_units": "%",
    "Activation (%)": 0
  },
  {
    "input_smiles": "O=C(Cc1ccc(-c2ccccc2)cc1)N[C@H]1CCOC1=O",
    "result_units": "%",
    "Activation (%)": 0
  }
]

# next compound below
Problem: Which Activation (%) reading was recorded for the compound O=C(Cc1ccc(C(F)(F)F)cc1)N[C@H]1CCOC1=O ?
Solution: 2
